Biological target: T1, human IL4 (human, UniProt P05112 25-153, biotinylated in the SPR and competition assays (sites not given))
T1 sequence: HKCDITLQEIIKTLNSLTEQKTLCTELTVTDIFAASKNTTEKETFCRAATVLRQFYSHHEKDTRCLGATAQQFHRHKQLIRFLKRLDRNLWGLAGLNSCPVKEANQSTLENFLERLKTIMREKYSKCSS
Experiment: cell-based or functional assay
Please go through the items and note down their HEK Stat6 Inhibition IC50.
# number then unit; no other words

Example entries and their recorded answers appear below.
{"columns": ["Binder", "Observed Result"],
 "data": [
  ["C06_6E9 (designed binder, ankyrin repeat protein; His-tagged, IMAC-purified) DLGKKLLEAARAGQDDEVRILMANGADVNAIDSDGTTPLHLAAMDGHLEIVEVLLKYGADVNAVDWNGDTPLHLAAVDGHLEIVEVLLKYGADVNAQDNLGDTPLHLAAYYGHLEIVEVLLKHGADVNASDFHGITPLHLAAFSGHLEIVEVLLKYGADVNAQDKFGKTAFDISIDNGNEDLAEILQKLN", "0.6 pM"],
  ["C06_44C12 (designed binder, ankyrin repeat protein; His-tagged, IMAC-purified) DLGKKLLEAASAGQDDEVHILMANGADVNALDDSGYTPLHLAAEDGHLEIVEVLLKHGADVNAADRMGDTPLHLAAFVGHLEIVEVLLKYGADVNAVDLAGVTPLHVAAFYGHLEIVEVLLKYGADVNAQDKFGKTAFDISIDNGNEDLAEILQKLN", "1.1 pM"],
  ["C06_53G6 (designed binder, ankyrin repeat protein; His-tagged, IMAC-purified) NLGKKLLEAARAGQDDEVRILMANGADVNATDDWGDTLLHLAATDGHLEIVEVLLKYGADVNANDAIGDTPLHLAALYGHLEIVEVLLKYGADVNATDLHGFTPLHLAAFWGHLEIVEVLLKHGADVNAQDKFGKTAFDISIDNGNEDLAEILQKLN", "2.1 pM"],
  ["C06_53E9 (designed binder, ankyrin repeat protein; His-tagged, IMAC-purified) DLGKELLEAASAGQDDEVHILMANGADVNASDKDGSTPLHLAAVYGHLEIVEVLLKYGADVNAEDMNGYTPLHLAAADGHLEIVEVLLKYGADVDAKDRTGWTPLHLAGEFGHLEIVEVLLKYGADVNAQDKFGKTAFDISIDNGNEDLAEILQKLN", "14.3 pM"],
  ["C06_19F8 (designed binder, ankyrin repeat protein; His-tagged, IMAC-purified) DLGKKLLEAARAGQDDEVRILMANGADVNATDDWGDTLLHLAATDGHLEIVEVLLKNGADVNASDSQGLTPLHLAAYYGHLEIVEVLLKYGADVNANDHHGITPLHLAAFAGHLEIVEVLLKYGADVNAQDKFGKTAFDISIDNGNEDLAEILQKLN", "15.2 pM"]
]}

Query: State its HEK Stat6 Inhibition IC50: C06_43G2 (designed binder, ankyrin repeat protein; His-tagged, IMAC-purified) DLGKKLLEAARAGQDDEVRILMANGADVNAKDVTGETPLHLASWEGHLEIVEVLLKHGADVNAQDLFGITPLHLAAATDGHLEIVEVLLKNGADVNATDSNGFTPLHLAASYGHLEIVDVLLKNGADVNAHDFDGFTPLHLAASWGHLEIVEVLLKYGADVNAQDKFGKTAFDISIDNGNEDLAEILQKLN
Response: 1.6 pM
